- experimental.target: T1, protein A56 of the oncolytic virus OTS-412 (vaccinia virus (OTS-412), UniProt P08714 17-315)
- T1 construct: also called OTS-412-A56; protein A56 variant
- T1 chain: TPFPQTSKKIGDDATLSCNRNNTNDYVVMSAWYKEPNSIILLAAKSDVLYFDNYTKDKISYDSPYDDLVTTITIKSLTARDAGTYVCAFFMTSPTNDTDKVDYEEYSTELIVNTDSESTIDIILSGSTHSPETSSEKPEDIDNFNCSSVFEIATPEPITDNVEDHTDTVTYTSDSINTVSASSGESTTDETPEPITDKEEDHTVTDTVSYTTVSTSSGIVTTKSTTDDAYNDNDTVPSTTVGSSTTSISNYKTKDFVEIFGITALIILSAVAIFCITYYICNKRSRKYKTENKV
- method: flow cytometry, MCF7 cells treated with OTS-412
measured.parameter: binding signal (flow cytometry, %)

A56-02B08 (Ab16) (antibody, V domains shown) VH: QVQLQQSGPGLVKPSQTLSLTCAISGDSVSSNSAAWNWIRQSPSRGLEWLGRTYYRSKWYNDYAVSVKSRITINPDTSKNQFSLQLNSVTAVDTAVYYCAKSYAGPISYYYYGLDVWGQGTTVTVSS VL: QSALTQPASVSGSPGQSVTISCTGTSSDIGRYNLVSWYQQHPGKAPKLMIYGGSKRPSGVSNRFSGSNSDNTASLTISGLRAEDEADYYCSSYASSSTPYVFGTGTKVTVL : ≥ 80%
A56-01F12 (Ab08) (antibody, V domains shown) VH: QVQLVESGGEVKKPGSSVKVSCKASGGSFSTYAISWVRQAPGQGLEWMGRIIPISDIRNYAQKFQGRVTLTADRATSTAYMELSSLRSEDTAVYYCAKGGRLLSTHFDYWGQGTLVTVSS VL: QLVLTQPPSVSAAPGQKVTISCSGSSSNIGNNYVSWYQQLPGTAPKLLIYDDDKRPSGIPDRFSGSKSGTSATLGITGLQTGDEADYYCGTWHSGLSAGVVFGGGTKLTVL : ≥ 80%
A56-35G07 (Ab51) (antibody, V domains shown) VH: QMQLVQSGAEVRKPGSSVKVSCKASGDTFSSYAVSWVRQAPGLGLEWMGRTIPRLGATSYAQNFQGRVSITADKSTNTVYMELSGLRSEDTAVYYCARYIPLVRGVRQPRDDFEIWGPGTMITVSS VL: DIQMTQSPGTLSLSPGERATLSCRASQSVSSSYLAWYQQKPGQAPRLLIYGASSRATGIPDRFSGSGSGTDFTLTISSLEPEDFAVYYCQHRKSWPPGATFGQGTRLEIK : ≥ 80%

Annotate the binder A56-02C07 (Ab19) (antibody, V domains shown) VH: QVQLVESGAEVRRPGSSVKVSCKTSGVTFSGYVLSWVRQAPGHGLEWMGRIIPLIDVENYAREFQGRMKITADKSTNTVYMELNNLRSEDTAVYYCAKSVVRGLDYYYYGFDVWGQGTTVTVSS VL: SYELTQPPSLSVAPGKTARITCGGNNIGSKSVHWYQQKPGQAPRLVTYYDGNRPSGIPERFSGSNSGNTATLIISRVEAGDEADYYCQVWDSSSDQGVFGTGTKVTVL with its measured binding signal (flow cytometry, %).
≥ 80%
